# key: entry, value: normalised inhibition (eCFP-eYFP dual reporter)
biological target: SOST; assay: reporter assay of Huesken 2005; conditions: siRNA; also: test concentration or dose not given here
Oligonucleotides are given in HELM: sugar(base)linkage, 5' to 3'; d 2'-deoxyribose, r ribose, m 2'-O-methylribose, p phosphate. ss, as = sense and antisense strand
Respond numerically; units are % and should not be typed.

Previously resolved entries follow.
substance	system.name	recorded.number
RNA1{r(U)p.r(G)p.r(C)p.r(A)p.r(A)p.r(G)p.r(C)p.r(G)p.r(C)p.r(C)p.r(U)p.r(C)p.r(A)p.r(C)p.r(C)p.r(C)p.r(G)p.r(C)p.r(U)p.d(T)p.d(T)}|RNA2{r(A)p.r(G)p.r(C)p.r(G)p.r(G)p.r(G)p.r(U)p.r(G)p.r(A)p.r(G)p.r(G)p.r(C)p.r(G)p.r(C)p.r(U)p.r(U)p.r(G)p.r(C)p.r(A)p.d(C)p.d(T)}$$$RNA1{StrandType:ss}|RNA2{StrandType:as}$	SOST	66.2
RNA1{r(C)p.r(A)p.r(G)p.r(G)p.r(C)p.r(G)p.r(U)p.r(U)p.r(C)p.r(A)p.r(A)p.r(G)p.r(A)p.r(A)p.r(U)p.r(G)p.r(A)p.r(U)p.r(G)p.d(T)p.d(T)}|RNA2{r(C)p.r(A)p.r(U)p.r(C)p.r(A)p.r(U)p.r(U)p.r(C)p.r(U)p.r(U)p.r(G)p.r(A)p.r(A)p.r(C)p.r(G)p.r(C)p.r(C)p.r(U)p.r(G)p.d(C)p.d(C)}$$$RNA1{StrandType:ss}|RNA2{StrandType:as}$	SOST	82.4

Proceeding to the next substance to report its normalised inhibition (eCFP-eYFP dual reporter).
For the substance RNA1{r(C)p.r(G)p.r(C)p.r(G)p.r(C)p.r(G)p.r(C)p.r(G)p.r(C)p.r(G)p.r(C)p.r(A)p.r(A)p.r(G)p.r(G)p.r(U)p.r(G)p.r(C)p.r(G)p.d(T)p.d(T)}|RNA2{r(C)p.r(G)p.r(C)p.r(A)p.r(C)p.r(C)p.r(U)p.r(U)p.r(G)p.r(C)p.r(G)p.r(C)p.r(G)p.r(C)p.r(G)p.r(C)p.r(G)p.r(C)p.r(G)p.d(G)p.d(C)}$$$RNA1{StrandType:ss}|RNA2{StrandType:as}$ , what normalised inhibition (eCFP-eYFP dual reporter) is on record?
60.6

----------
target: Cacnb1 (rat); experiment: reporter assay of Huesken 2005; conditions: siRNA
Oligonucleotides are given in HELM: sugar(base)linkage, 5' to 3'; d 2'-deoxyribose, r ribose, m 2'-O-methylribose, p phosphate. ss, as = sense and antisense strand
parameter: normalised inhibition (eCFP-eYFP dual reporter) (%)
Respond numerically; units are % and should not be typed.

substance	recorded.number
RNA1{r(G)p.r(A)p.r(G)p.r(A)p.r(U)p.r(C)p.r(C)p.r(C)p.r(U)p.r(A)p.r(U)p.r(G)p.r(G)p.r(A)p.r(G)p.r(G)p.r(U)p.r(C)p.r(U)p.d(T)p.d(T)}|RNA2{r(A)p.r(G)p.r(A)p.r(C)p.r(C)p.r(U)p.r(C)p.r(C)p.r(A)p.r(U)p.r(A)p.r(G)p.r(G)p.r(G)p.r(A)p.r(U)p.r(C)p.r(U)p.r(C)p.d(T)p.d(T)}$$$RNA1{StrandType:ss}|RNA2{StrandType:as}$	71.5

Proceeding to the next substance to report its normalised inhibition (eCFP-eYFP dual reporter).
For the substance RNA1{r(A)p.r(A)p.r(G)p.r(A)p.r(A)p.r(U)p.r(G)p.r(A)p.r(G)p.r(C)p.r(U)p.r(G)p.r(G)p.r(A)p.r(G)p.r(G)p.r(G)p.r(C)p.r(U)p.d(T)p.d(T)}|RNA2{r(A)p.r(G)p.r(C)p.r(C)p.r(C)p.r(U)p.r(C)p.r(C)p.r(A)p.r(G)p.r(C)p.r(U)p.r(C)p.r(A)p.r(U)p.r(U)p.r(C)p.r(U)p.r(U)p.d(A)p.d(T)}$$$RNA1{StrandType:ss}|RNA2{StrandType:as}$ , what normalised inhibition (eCFP-eYFP dual reporter) is on record?
54.2

----------
# key: entry, value: normalised inhibition (eCFP-eYFP dual reporter)
target: UBE2L3; experiment: reporter assay of Huesken 2005; settings: siRNA
Oligonucleotides are written 5' to 3', each unit as a sugar letter and its base; * is a phosphorothioate linkage, no mark a phosphodiester; rarer units and linkages stand in square brackets, end groups in braces. Plain capitals give the bases only. d = 2'-deoxy (DNA); r = 2'-OH (RNA)
Respond numerically; units are % and should not be typed.

substance | scale.unit | recorded.number
sense rCrArCrCrCrGrCrUrUrCrGrGrGrCrUrGrArCrCdTdT / antisense rGrGrUrCrArGrCrCrCrGrArArGrCrGrGrGrUrGdCdT | % | 60

Give recorded normalised inhibition (eCFP-eYFP dual reporter) with UBE2L3 for the following substance: sense rCrUrGrArGrCrArCrCrCrGrCrUrUrCrGrGrGrCdTdT / antisense rGrCrCrCrGrArArGrCrGrGrGrUrGrCrUrCrArGdGdC
51.7

Field entry: sense rGrGrArArGrCrCrArGrCrArArCrCrArArArArCdTdT / antisense rGrUrUrUrUrGrGrUrUrGrCrUrGrGrCrUrUrCrCdAdG
73

Field entry: sense rCrCrUrArGrCrUrGrArArGrArArUrArCrUrCrUdTdT / antisense rArGrArGrUrArUrUrCrUrUrCrArGrCrUrArGrGdTdC
63.9

Field entry: sense rGrGrCrArArGrGrGrCrUrUrArUrUrGrUrUrCrCdTdT / antisense rGrGrArArCrArArUrArArGrCrCrCrUrUrGrCrCdAdA
79.4

Field entry: sense rArArArCrArArArGrArUrCrUrArUrCrArCrCrCdTdT / antisense rGrGrGrUrGrArUrArGrArUrCrUrUrUrGrUrUrUdTdA
50.1

----------
biological target: CDC34; experiment: reporter assay of Huesken 2005; settings: siRNA
Oligonucleotides are given in HELM: sugar(base)linkage, 5' to 3'; d 2'-deoxyribose, r ribose, m 2'-O-methylribose, p phosphate. ss, as = sense and antisense strand
parameter: normalised inhibition (eCFP-eYFP dual reporter) (%)
Respond numerically; units are % and should not be typed.

substance	scale.unit	recorded.number
RNA1{r(A)p.r(C)p.r(G)p.r(C)p.r(U)p.r(G)p.r(G)p.r(C)p.r(C)p.r(G)p.r(A)p.r(G)p.r(U)p.r(A)p.r(C)p.r(U)p.r(G)p.r(C)p.r(G)p.d(T)p.d(T)}|RNA2{r(C)p.r(G)p.r(C)p.r(A)p.r(G)p.r(U)p.r(A)p.r(C)p.r(U)p.r(C)p.r(G)p.r(G)p.r(C)p.r(C)p.r(A)p.r(G)p.r(C)p.r(G)p.r(U)p.d(G)p.d(G)}$$$RNA1{StrandType:ss}|RNA2{StrandType:as}$	%	52.4
RNA1{r(C)p.r(G)p.r(C)p.r(G)p.r(C)p.r(C)p.r(U)p.r(C)p.r(A)p.r(A)p.r(G)p.r(U)p.r(U)p.r(C)p.r(C)p.r(C)p.r(C)p.r(A)p.r(U)p.d(T)p.d(T)}|RNA2{r(A)p.r(U)p.r(G)p.r(G)p.r(G)p.r(G)p.r(A)p.r(A)p.r(C)p.r(U)p.r(U)p.r(G)p.r(A)p.r(G)p.r(G)p.r(C)p.r(G)p.r(C)p.r(G)p.d(C)p.d(C)}$$$RNA1{StrandType:ss}|RNA2{StrandType:as}$	%	51.1
RNA1{r(C)p.r(U)p.r(C)p.r(C)p.r(U)p.r(G)p.r(A)p.r(G)p.r(U)p.r(G)p.r(U)p.r(G)p.r(A)p.r(U)p.r(C)p.r(U)p.r(C)p.r(C)p.r(C)p.d(T)p.d(T)}|RNA2{r(G)p.r(G)p.r(G)p.r(A)p.r(G)p.r(A)p.r(U)p.r(C)p.r(A)p.r(C)p.r(A)p.r(C)p.r(U)p.r(C)p.r(A)p.r(G)p.r(G)p.r(A)p.r(G)p.d(A)p.d(A)}$$$RNA1{StrandType:ss}|RNA2{StrandType:as}$	%	42.3
RNA1{r(G)p.r(G)p.r(G)p.r(C)p.r(G)p.r(G)p.r(C)p.r(U)p.r(A)p.r(C)p.r(U)p.r(U)p.r(C)p.r(A)p.r(A)p.r(G)p.r(G)p.r(C)p.r(G)p.d(T)p.d(T)}|RNA2{r(C)p.r(G)p.r(C)p.r(C)p.r(U)p.r(U)p.r(G)p.r(A)p.r(A)p.r(G)p.r(U)p.r(A)p.r(G)p.r(C)p.r(C)p.r(G)p.r(C)p.r(C)p.r(C)p.d(T)p.d(C)}$$$RNA1{StrandType:ss}|RNA2{StrandType:as}$	%	29.8

Proceeding to the next substance to report its normalised inhibition (eCFP-eYFP dual reporter).
For the substance RNA1{r(G)p.r(C)p.r(G)p.r(C)p.r(C)p.r(U)p.r(C)p.r(A)p.r(A)p.r(G)p.r(U)p.r(U)p.r(C)p.r(C)p.r(C)p.r(C)p.r(A)p.r(U)p.r(C)p.d(T)p.d(T)}|RNA2{r(G)p.r(A)p.r(U)p.r(G)p.r(G)p.r(G)p.r(G)p.r(A)p.r(A)p.r(C)p.r(U)p.r(U)p.r(G)p.r(A)p.r(G)p.r(G)p.r(C)p.r(G)p.r(C)p.d(G)p.d(C)}$$$RNA1{StrandType:ss}|RNA2{StrandType:as}$ , what normalised inhibition (eCFP-eYFP dual reporter) is on record?
58
